target: BRPF1B (Homo sapiens); construct: Bromodomain DSF Tm assays were performed; made in house; experiment: DSF Tm shift assay, BRPF1B; format: binding; details: single measurement
Sequence (P55201 628-732 limits assumed): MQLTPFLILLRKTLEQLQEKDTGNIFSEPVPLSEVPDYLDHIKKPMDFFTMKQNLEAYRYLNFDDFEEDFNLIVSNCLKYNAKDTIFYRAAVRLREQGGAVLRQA
EXPERIMENTAL ENDPOINT: BRPF1B Tm (°C)

Guide cases for BRPF1B Tm, answers given:
COMPOUND	BRPF1B Tm [°C]
CC(C)(C)OC(=O)N1CCN(/C=C2\CCn3c2nc(=O)c2ccccc23)CC1 [Compound 14]	0.2
O=c1nc2n(c3ccccc13)CC/C2=C\N1CCCC1 [Compound 9]	0.0
O=c1nc2n(c3ccccc13)CC/C2=C\N1CCOCC1 [Compound 11]	0.0

(P) CN1CCN(/C=C2\CCn3c2nc(=O)c2ccccc23)CC1 [Compound 12]
(Q) CN(C)/C=C1\CCn2c1nc(=O)c1ccccc12 [Compound 5]
INPUT: Among P and Q , whose measured BRPF1B Tm is the smaller figure? In your reply, give the label of the chosen option.
OUTPUT: Q
(Q: 0.1 °C, P: 0.2 °C)

(I) CCN1CCN(/C=C2\CCn3c2nc(=O)c2ccccc23)CC1 [Compound 13]
(II) CN1CCCN(/C=C2\CCn3c2nc(=O)c2ccccc23)CC1 [Compound 15]
INPUT: Rank I against II by their BRPF1B Tm values and give the higher one. Write the label of whichever entry you select.
OUTPUT: II
(II: 0.2 °C, I: 0.0 °C)

* * *

target: CECR2A (Homo sapiens, UniProt Q9BXF3); construct: Bromodomain DSF Tm assays were performed; made in house; assay: DSF Tm shift assay, CECR2A; format: binding; settings: single measurement
Sequence (Q9BXF3 434-538 limits assumed): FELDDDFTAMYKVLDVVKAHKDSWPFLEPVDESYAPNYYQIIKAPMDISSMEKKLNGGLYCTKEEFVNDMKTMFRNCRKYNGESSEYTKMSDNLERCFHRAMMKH
EXPERIMENTAL ENDPOINT: CECR2A Tm (°C)

COMPOUND STRUCTURE STRING	UNIT DESCRIPTOR	CECR2A Tm
CCN1CCN(/C=C2\CCn3c2nc(=O)c2ccccc23)CC1	°C	0.1

(P) CN1CCN(/C=C2\CCn3c2nc(=O)c2ccccc23)CC1
(Q) O=c1nc2n(c3ccccc13)CC/C2=C\N1CCCC1
INPUT: Smaller CECR2A Tm value? Options are P and Q Give the chosen item's label as your response.
OUTPUT: Q
(Q: 0.2 °C, P: 0.3 °C)

* * *

target: CECR2A (Homo sapiens); construct: Bromodomain DSF Tm assays were performed; made in house; assay: DSF Tm shift assay, CECR2A; type: binding; details: single measurement
EXPERIMENTAL ENDPOINT: CECR2A Tm (°C)

Here are 3 compounds together with their reported answers.
COMPOUND STRUCTURE STRING	UNIT DESCRIPTOR	CECR2A Tm
O=c1nc2n(c3ccccc13)CC/C2=C\N1CCCCC1	°C	0.1
CN(C)/C=C1\CCn2c1nc(=O)c1ccccc12	°C	0.1
CC(C)(C)OC(=O)N1CCN(/C=C2\CCn3c2nc(=O)c2ccccc23)CC1	°C	0.1

(1) O=c1nc2n(c3ccccc13)CC/C2=C\N1CCOCC1
(2) CN1CCCN(/C=C2\CCn3c2nc(=O)c2ccccc23)CC1
INPUT: Among 1 and 2 , whose measured CECR2A Tm is the smaller figure? Write the label of whichever entry you select.
OUTPUT: 2

* * *

Molecular target: BRD9A (Homo sapiens)
Construct: Bromodomain DSF Tm assays were performed; made in house
Sequence (Q9H8M2 136-240 limits assumed): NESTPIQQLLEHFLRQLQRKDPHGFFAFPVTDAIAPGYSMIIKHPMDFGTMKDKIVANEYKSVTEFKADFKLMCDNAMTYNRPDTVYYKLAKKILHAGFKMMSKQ
Test: DSF Tm shift assay, BRD9A
Assay type: binding
Conditions: single measurement
Description: Protein Expression and Purification. Proteins were cloned, expressed, and purified as previously described.1 […] Bromodomain DSF Tm assays were performed using a Mx3005p real-time PCR machine (Agilent) and low profile 96-well PCR plates (AB-0700, Life Technologies). […] The temperature was raised by 3 °C per 1 min from 25–95 °C, and fluorescence readers were taken at each interval. […]
EXPERIMENTAL ENDPOINT: BRD9A Tm (°C)

// known answers, use as guide
COMPOUND	BRD9A Tm / °C
CN1CCN(/C=C2\CCn3c2nc(=O)c2ccccc23)CC1 [Compound 12]	0.5
CN1CCCN(/C=C2\CCn3c2nc(=O)c2ccccc23)CC1 [Compound 15]	0.0
O=c1nc2n(c3ccccc13)CC/C2=C\N1CCCC1 [Compound 9]	1.0
CC(C)(C)OC(=O)N1CCN(/C=C2\CCn3c2nc(=O)c2ccccc23)CC1 [Compound 14]	0.7
O=c1nc2n(c3ccccc13)CC/C2=C\N1CCOCC1 [Compound 11]	0.8

(a) O=c1nc2n(c3ccccc13)CC/C2=C\N1CCCCC1 [Compound 10]
(b) CCN1CCN(/C=C2\CCn3c2nc(=O)c2ccccc23)CC1 [Compound 13]
INPUT: Short answer wanted: higher BRD9A Tm, a or b ? Please identify the chosen entry by its label.
OUTPUT: b
(b: 0.8 °C, a: 0.2 °C)
